Target: Histamine H4 receptor (Homo sapiens, UniProt Q9H3N8)
Sequence (Q9H3N8 whole entry): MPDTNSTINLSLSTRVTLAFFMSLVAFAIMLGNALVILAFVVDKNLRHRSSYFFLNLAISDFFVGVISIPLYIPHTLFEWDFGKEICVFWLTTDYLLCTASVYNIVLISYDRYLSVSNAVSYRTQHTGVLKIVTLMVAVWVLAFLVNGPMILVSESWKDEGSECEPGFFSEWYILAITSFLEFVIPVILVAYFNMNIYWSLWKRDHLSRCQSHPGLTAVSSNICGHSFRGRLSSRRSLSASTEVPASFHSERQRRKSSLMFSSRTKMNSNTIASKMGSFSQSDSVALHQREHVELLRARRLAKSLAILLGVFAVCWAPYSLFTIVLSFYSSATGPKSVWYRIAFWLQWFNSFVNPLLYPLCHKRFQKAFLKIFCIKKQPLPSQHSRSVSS
Assay: Displacement of [3H]histamine from human histamine H4 receptor expressed in HEK293T cells
Format: cell-based, HEK-293T
// reported Ki per item

- CHEMICAL_STRUCTURE: "CN1CCN(c2nc3ccccc3nc2Oc2ccc(Cl)cc2)CC1"
  TARGET_SYSTEM: "Histamine H4 receptor (Homo sapiens, UniProt Q9H3N8)"
  Ki [nM]: 2340
- CHEMICAL_STRUCTURE: "CN1CCN(c2nc3cc(Cl)ccc3[nH]c2=O)CC1"
  TARGET_SYSTEM: "Histamine H4 receptor (Homo sapiens, UniProt Q9H3N8)"
  Ki [nM]: 11.7
- CHEMICAL_STRUCTURE: "Cc1nc2ccccc2nc1N1CCN(C)CC1"
  TARGET_SYSTEM: "Histamine H4 receptor (Homo sapiens, UniProt Q9H3N8)"
  Ki [nM]: 200
- CHEMICAL_STRUCTURE: "CN1CCN(c2nccc3ccccc23)CC1"
  TARGET_SYSTEM: "Histamine H4 receptor (Homo sapiens, UniProt Q9H3N8)"
  Ki [nM]: 20400
- CHEMICAL_STRUCTURE: "COc1ccc(COc2nc3ccccc3nc2N2CCN(C)CC2)cc1"
  TARGET_SYSTEM: "Histamine H4 receptor (Homo sapiens, UniProt Q9H3N8)"
  Ki [nM]: 708
- CHEMICAL_STRUCTURE: "CN1CCN(c2nc3ccccc3nc2OCc2ccccc2)CC1"
  TARGET_SYSTEM: "Histamine H4 receptor (Homo sapiens, UniProt Q9H3N8)"
  Ki [nM]: 295
- CHEMICAL_STRUCTURE: "CN1CCN(c2ccc3ccccc3n2)CC1"
  TARGET_SYSTEM: "Histamine H4 receptor (Homo sapiens, UniProt Q9H3N8)"
  Ki [nM]: 6920

---

Molecular target: Histamine H1 receptor (Homo sapiens, UniProt P35367)
Sequence (P35367 whole entry): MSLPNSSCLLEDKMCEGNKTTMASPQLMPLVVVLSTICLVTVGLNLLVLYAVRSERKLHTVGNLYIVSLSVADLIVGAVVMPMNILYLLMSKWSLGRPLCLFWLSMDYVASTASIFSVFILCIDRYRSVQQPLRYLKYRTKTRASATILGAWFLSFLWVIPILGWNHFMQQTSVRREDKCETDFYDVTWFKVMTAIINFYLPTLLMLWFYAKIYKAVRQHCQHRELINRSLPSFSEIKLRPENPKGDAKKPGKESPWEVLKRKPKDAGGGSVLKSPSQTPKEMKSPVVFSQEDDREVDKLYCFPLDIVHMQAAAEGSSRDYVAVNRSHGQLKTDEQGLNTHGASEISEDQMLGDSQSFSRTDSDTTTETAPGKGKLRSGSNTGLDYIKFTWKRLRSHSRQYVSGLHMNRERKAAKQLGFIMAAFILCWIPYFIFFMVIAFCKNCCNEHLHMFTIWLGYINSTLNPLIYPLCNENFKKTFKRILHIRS
pKi: −log10 of the molar value.

- CHEMICAL_STRUCTURE: "CN1CCN(c2nc3ccccc3nc2Cc2ccccc2)CC1"
  TARGET_SYSTEM: "Histamine H1 receptor (Homo sapiens, UniProt P35367)"
  pKi: 6.13
